Recorded kon, one value per entry.
- System Under Test: T1, CD137-hisFc fusion protein (Sino Biological Cat 10041-H03H) (human, UniProt Q07011 24-186)
- T1 construct: Bought; also called recombinant human CD137 (fused with human Fc and His tag); not shown: His tag and human Fc
- Test: BLI Octet, Fab
Use M⁻¹ s⁻¹ as the unit, but write only the number.

Consider the reported kon for these binders:
binder="Fab 7105 (Fab, V domains shown, Fab from E. coli; also called VH51/VL51) VH: EVQLVESGGGLVQPGGSLRLSCAASGFSLSTGGVGVGWIRQAPGKGLEWVSYISGAGSTTYYADSVKGRFTISRDNSKNTLYLQLNSLRAEDTAVYYCAREGSDTVLGDWFAYWGQGTLVTVSS VL: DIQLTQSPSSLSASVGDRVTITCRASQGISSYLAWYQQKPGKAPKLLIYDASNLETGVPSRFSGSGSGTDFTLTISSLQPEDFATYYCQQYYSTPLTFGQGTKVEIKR" units_label="M⁻¹ s⁻¹" recorded_value=330000
binder="Fab 5353 (Fab, V domains shown, Fab from E. coli; also called VH26/VL26) VH: EVQLVESGGGLVQPGGSLRLSCAASGFTFSSYWIHWVRQAPGKGLEWVSVISGDGDTTYYADSVKGRFTISRDNSKNTLYLQLNSLRAEDTAVYYCARSRGLVLDAFDYWGQGTLVTVSS VL: DIQLTQSPSSLSASVGDRVTITCRASQSVSGRFLAWYQQKPGKAPKLLIYDASSLESGVPSRFSGSGSGTDFTLTISSLQPEDFATYYCQQYDYWPPYTFGQGTKVEIKR" units_label="M⁻¹ s⁻¹" recorded_value=370000

Ask: Entry under review: Fab 5299 (Fab, V domains shown, Fab from E. coli; also called VH11/VL11) VH: EVQLVESGGGLVQPGGSLRLSCAASGYSISSGHYWGWIRQAPGKGLEWLALIDWYGDKYYSTSLKSRLTISRDNSKNTLYLQLNSLRAEDTAVYYCARSDYYGSHFDYWGQGTLVTVSS VL: DIQLTQSPSSLSASVGDRVTITCRASESVDFDGFSFLAWYQQKPGKAPKLLIYDASNLETGVPSRFSGSGSGTDFTLTISSLQPEDFATYYCQQYDTLPRTFGQGTKVEIKR . Reported kon?
Result: 555000
